assay: Bioavailability in Beagle dog at 1 mg/kg, po and 0.5 mg/kg, iv; assay type: ADME, organism-based, Canis lupus familiaris; settings: in vivo
readout: bioavailability (%)

>>> measurement("Cc1cc(CN2CC(C(=O)O)C2)ccc1OCc1cc(-c2ccccc2)c(C(F)(F)F)s1")
100
>>> measurement("O=C(O)C1CN(Cc2ccc(OCc3cc(-c4ccccc4)c(C(F)(F)F)s3)cc2)C1")
66

====

experiment: Plasma concentration in femoral artery cannulated Lewis rat at 3 mg/kg, po after 12 hrs; format: ADME, organism-based; design: dose 3 mg/kg, route oral
readout: concentration at 12 h (nM)

>>> measurement("O=C(O)C1CN(Cc2ccc(OCc3cc(-c4ccccc4)c(C(F)(F)F)s3)cc2)C1")
280

The values you see were collected from ChEMBL document CHEMBL1149292.
